# System: PC-3 multi-cell spheroids, viability
# test_protocol: Anticancer human tumor PC-3 cell line growth inhibition [IpAb]
# condition_info: second compound 0.316 µM; first compound 0.0316 µM; stronger effect = lower value
Listed here are compounds together with their documented viability, T/C.
measured_endpoint: viability, T/C

1. Cn1nccc1Nc1nccc(-c2ccn(C(CO)c3ccc(Cl)c(F)c3)c(=O)c2)n1 (stereo not drawn) + CCN1CCN(Cc2ccc(Nc3ncc(F)c(-c4cc(F)c5nc(C)n(C(C)C)c5c4)n3)nc2)CC1	52.4%
2. C=CCn1c(=O)c2cnc(Nc3ccc(N4CCN(C)CC4)cc3)nc2n1-c1cccc(C(C)(C)O)n1 + CC(C)NCC(C(=O)N1CCN(c2ncnc3c2C(C)CC3O)CC1)c1ccc(Cl)cc1	41.3%
3. Cc1nc(NC(=O)N2CCCC2C(N)=O)sc1-c1ccnc(C(C)(C)C(F)(F)F)c1 (stereo not drawn) + CCN1CCN(Cc2ccc(Nc3ncc(F)c(-c4cc(F)c5nc(C)n(C(C)C)c5c4)n3)nc2)CC1	59.4%

* * *

# System: PC-3 multi-cell spheroids, viability
# test_protocol: Anticancer human tumor PC-3 cell line growth inhibition [IpAb]
# condition_info: second compound 1 µM; first compound 3.16 µM; stronger effect = lower value
measured_endpoint: viability, T/C (%)

1. C=CCn1c(=O)c2cnc(Nc3ccc(N4CCN(C)CC4)cc3)nc2n1-c1cccc(C(C)(C)O)n1 + CCN1CCN(Cc2ccc(Nc3ncc(F)c(-c4cc(F)c5nc(C)n(C(C)C)c5c4)n3)nc2)CC1	31.6
2. C=CC(=O)N1CCN(c2nc(=O)n(-c3c(C)ccnc3C(C)C)c3nc(-c4c(O)cccc4F)c(F)cc23)C(C)C1 (stereo not drawn) + CCN1CCN(Cc2ccc(Nc3ncc(F)c(-c4cc(F)c5nc(C)n(C(C)C)c5c4)n3)nc2)CC1	60.3
3. CCCS(=O)(=O)Nc1ccc(F)c(C(=O)c2c[nH]c3ncc(-c4ccc(Cl)cc4)cc23)c1F + CCN1CCN(Cc2ccc(Nc3ncc(F)c(-c4cc(F)c5nc(C)n(C(C)C)c5c4)n3)nc2)CC1	52.6

* * *

# Tested on: PC-3 multi-cell spheroids, viability
# test_protocol: Anticancer human tumor PC-3 cell line growth inhibition [IpAb];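 note: spheroids exposed to compounds for 7 days before readout; 100% = DMSO vehicle control wells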
# condition_info: second compound 3.16 µM; first compound 10 µM; stronger effect = lower value
viability, T/C for assorted compounds
measured_endpoint: viability, T/C (%)

1) CCCS(=O)(=O)Nc1ccc(F)c(C(=O)c2c[nH]c3ncc(-c4ccc(Cl)cc4)cc23)c1F + CC(C)NCC(C(=O)N1CCN(c2ncnc3c2C(C)CC3O)CC1)c1ccc(Cl)cc1	10.5
2) Cn1ncc(Cl)c1-c1cc(C(=O)NC(CN)Cc2cccc(F)c2)sc1Cl (configuration not stated) + CC(C)NCC(C(=O)N1CCN(c2ncnc3c2C(C)CC3O)CC1)c1ccc(Cl)cc1	0.26
3) C=CCn1c(=O)c2cnc(Nc3ccc(N4CCN(C)CC4)cc3)nc2n1-c1cccc(C(C)(C)O)n1 + CC(C)NCC(C(=O)N1CCN(c2ncnc3c2C(C)CC3O)CC1)c1ccc(Cl)cc1	7.89
4) Cn1nccc1Nc1nccc(-c2ccn(C(CO)c3ccc(Cl)c(F)c3)c(=O)c2)n1 (configuration not stated) + CC(C)NCC(C(=O)N1CCN(c2ncnc3c2C(C)CC3O)CC1)c1ccc(Cl)cc1	13.8
5) CC1(C)CCC(CN2CCN(c3ccc(C(=O)NS(=O)(=O)c4ccc(NCC5CCOCC5)c([N+](=O)[O-])c4)c(Oc4cnc5[nH]ccc5c4)c3)CC2)=C(c2ccc(Cl)cc2)C1 + CC(C)NCC(C(=O)N1CCN(c2ncnc3c2C(C)CC3O)CC1)c1ccc(Cl)cc1	3.12
6) Cc1nc(NC(=O)N2CCCC2C(N)=O)sc1-c1ccnc(C(C)(C)C(F)(F)F)c1 (configuration not stated) + CC(C)NCC(C(=O)N1CCN(c2ncnc3c2C(C)CC3O)CC1)c1ccc(Cl)cc1	3.24
7) C=CC(=O)N1CCN(c2nc(=O)n(-c3c(C)ccnc3C(C)C)c3nc(-c4c(O)cccc4F)c(F)cc23)C(C)C1 (configuration not stated) + CC(C)NCC(C(=O)N1CCN(c2ncnc3c2C(C)CC3O)CC1)c1ccc(Cl)cc1	13.1

* * *

// reported viability, T/C per item
# Tested on: PC-3 multi-cell spheroids, viability
# test_protocol: Anticancer human tumor PC-3 cell line growth inhibition [IpAb];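 note: spheroids exposed to compounds for 7 days before readout; 100% = DMSO vehicle control wells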
# condition_info: second compound 0.1 µM; first compound 0.3 µM; stronger effect = lower value
measured_endpoint: viability, T/C

1. Cn1cnc2c(F)c(Nc3ccc(Br)cc3Cl)c(C(=O)NOCCO)cc21 + CCN1CCN(Cc2ccc(Nc3ncc(F)c(-c4cc(F)c5nc(C)n(C(C)C)c5c4)n3)nc2)CC1	49.2%
2. CC(C)(C)c1cnc(CSc2cnc(NC(=O)C3CCNCC3)s2)o1 + CCN1CCN(Cc2ccc(Nc3ncc(F)c(-c4cc(F)c5nc(C)n(C(C)C)c5c4)n3)nc2)CC1	3.51%
3. CC(C)(C)c1cnc(CSc2cnc(NC(=O)C3CCNCC3)s2)o1 + CC(C)NCC(C(=O)N1CCN(c2ncnc3c2C(C)CC3O)CC1)c1ccc(Cl)cc1	4.14%
4. CC(=O)c1c(C)c2cnc(Nc3ccc(N4CCNCC4)cn3)nc2n(C2CCCC2)c1=O + CCN1CCN(Cc2ccc(Nc3ncc(F)c(-c4cc(F)c5nc(C)n(C(C)C)c5c4)n3)nc2)CC1	55.4%
5. Cn1cnc2c(F)c(Nc3ccc(Br)cc3Cl)c(C(=O)NOCCO)cc21 + CC(C)NCC(C(=O)N1CCN(c2ncnc3c2C(C)CC3O)CC1)c1ccc(Cl)cc1	78.9%
6. CC(=O)c1c(C)c2cnc(Nc3ccc(N4CCNCC4)cn3)nc2n(C2CCCC2)c1=O + CC(C)NCC(C(=O)N1CCN(c2ncnc3c2C(C)CC3O)CC1)c1ccc(Cl)cc1	48.2%

* * *

# System: PC-3 multi-cell spheroids, viability
# test_protocol: Anticancer human tumor PC-3 cell line growth inhibition [IpAb]; active means viability on the fitted dose curve at most 10% of control; inactive means the rest;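 note: spheroids exposed to compounds for 7 days before readout; 100% = DMSO vehicle control wells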
# condition_info: second compound 0.1 µM; first compound 0.949 µM
Outcome codes: true (1) = active, false (0) = inactive

1) Cn1cnc2c(F)c(Nc3ccc(Br)cc3Cl)c(C(=O)NOCCO)cc21 + CC(C)NCC(C(=O)N1CCN(c2ncnc3c2C(C)CC3O)CC1)c1ccc(Cl)cc1	false (0)
2) Cn1cnc2c(F)c(Nc3ccc(Br)cc3Cl)c(C(=O)NOCCO)cc21 + CCN1CCN(Cc2ccc(Nc3ncc(F)c(-c4cc(F)c5nc(C)n(C(C)C)c5c4)n3)nc2)CC1	false (0)
3) CC(C)(C)c1cnc(CSc2cnc(NC(=O)C3CCNCC3)s2)o1 + CC(C)NCC(C(=O)N1CCN(c2ncnc3c2C(C)CC3O)CC1)c1ccc(Cl)cc1	true (1)
4) CC(C)(C)c1cnc(CSc2cnc(NC(=O)C3CCNCC3)s2)o1 + CCN1CCN(Cc2ccc(Nc3ncc(F)c(-c4cc(F)c5nc(C)n(C(C)C)c5c4)n3)nc2)CC1	true (1)

* * *

# System: PC-3 multi-cell spheroids, viability
# test_protocol: Anticancer human tumor PC-3 cell line growth inhibition [IpAb];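 note: spheroids exposed to compounds for 7 days before readout; 100% = DMSO vehicle control wells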
# condition_info: second compound 0.1 µM; first compound 0.316 µM; stronger effect = lower value
measured_endpoint: viability, T/C

1. CCCS(=O)(=O)Nc1ccc(F)c(C(=O)c2c[nH]c3ncc(-c4ccc(Cl)cc4)cc23)c1F + CCN1CCN(Cc2ccc(Nc3ncc(F)c(-c4cc(F)c5nc(C)n(C(C)C)c5c4)n3)nc2)CC1	68.6%
2. Cc1nc(NC(=O)N2CCCC2C(N)=O)sc1-c1ccnc(C(C)(C)C(F)(F)F)c1 (stereo not given) + CCN1CCN(Cc2ccc(Nc3ncc(F)c(-c4cc(F)c5nc(C)n(C(C)C)c5c4)n3)nc2)CC1	51.2%
3. C=CCn1c(=O)c2cnc(Nc3ccc(N4CCN(C)CC4)cc3)nc2n1-c1cccc(C(C)(C)O)n1 + CCN1CCN(Cc2ccc(Nc3ncc(F)c(-c4cc(F)c5nc(C)n(C(C)C)c5c4)n3)nc2)CC1	52.6%
4. Cn1nccc1Nc1nccc(-c2ccn(C(CO)c3ccc(Cl)c(F)c3)c(=O)c2)n1 (stereo not given) + CC(C)NCC(C(=O)N1CCN(c2ncnc3c2C(C)CC3O)CC1)c1ccc(Cl)cc1	83.1%
5. C=CCn1c(=O)c2cnc(Nc3ccc(N4CCN(C)CC4)cc3)nc2n1-c1cccc(C(C)(C)O)n1 + CC(C)NCC(C(=O)N1CCN(c2ncnc3c2C(C)CC3O)CC1)c1ccc(Cl)cc1	42.4%
6. CCCS(=O)(=O)Nc1ccc(F)c(C(=O)c2c[nH]c3ncc(-c4ccc(Cl)cc4)cc23)c1F + CC(C)NCC(C(=O)N1CCN(c2ncnc3c2C(C)CC3O)CC1)c1ccc(Cl)cc1	95.2%
7. C=CC(=O)N1CCN(c2nc(=O)n(-c3c(C)ccnc3C(C)C)c3nc(-c4c(O)cccc4F)c(F)cc23)C(C)C1 (stereo not given) + CCN1CCN(Cc2ccc(Nc3ncc(F)c(-c4cc(F)c5nc(C)n(C(C)C)c5c4)n3)nc2)CC1	60.4%
8. COc1c(OCCCN2CCOCC2)ccc2c3n(c(=NC(=O)c4cnc(N)nc4)nc12)CCN3 + CCN1CCN(Cc2ccc(Nc3ncc(F)c(-c4cc(F)c5nc(C)n(C(C)C)c5c4)n3)nc2)CC1	12.8%
9. Cc1nc(NC(=O)N2CCCC2C(N)=O)sc1-c1ccnc(C(C)(C)C(F)(F)F)c1 (stereo not given) + CC(C)NCC(C(=O)N1CCN(c2ncnc3c2C(C)CC3O)CC1)c1ccc(Cl)cc1	47.8%
10. CC1(C)CCC(CN2CCN(c3ccc(C(=O)NS(=O)(=O)c4ccc(NCC5CCOCC5)c([N+](=O)[O-])c4)c(Oc4cnc5[nH]ccc5c4)c3)CC2)=C(c2ccc(Cl)cc2)C1 + CC(C)NCC(C(=O)N1CCN(c2ncnc3c2C(C)CC3O)CC1)c1ccc(Cl)cc1	67.6%
